- Test system: MOLT-4 leukemia
- protocol_description: NCI tumour cell line growth inhibition, 384-well format; in the data active = GI50 below about 0.43 µM; inactive = the rest
// classify into true = active, false = inactive

INPUT: What call does the record list for "COc1ccc(-c2c(Nc3ccccn3)nc3c(C4=CCCCC4)c(-c4ccccc4)[nH]n3c2=O)cc1" ?
OUTPUT: true

INPUT: What call does the record list for "Nc1cc(C(F)(F)F)c(-c2nc(N3CCOCC3)nc(N3CCOCC3)n2)cn1" ?
OUTPUT: true

INPUT: What call does the record list for "O=C1[C@H](Cc2ccc(O)cc2)N2C(=O)CCN(C(=O)NCc3ccccc3)[C@H]2CN1Cc1cccc2ccccc12" ?
OUTPUT: true

INPUT: What call does the record list for "O=C(O)CSc1cc(NS(=O)(=O)c2ccc(Br)cc2)c2ccccc2c1O" ?
OUTPUT: false
